target desc: T1, human melanocortin-4 receptor (recombinant hMC4-R) (human, UniProt P32245 1-332)
T1 construct: whole, on cells; Ki assays used membrane homogenates of HEK-293 cells expressing recombinant hMC4-R; cAMP assays used HEK-293 T-REx cells induced with 0.1 ng/mL doxycycline; also called human MC4-R; MC4 receptor
T1 sequence (P32245 whole entry): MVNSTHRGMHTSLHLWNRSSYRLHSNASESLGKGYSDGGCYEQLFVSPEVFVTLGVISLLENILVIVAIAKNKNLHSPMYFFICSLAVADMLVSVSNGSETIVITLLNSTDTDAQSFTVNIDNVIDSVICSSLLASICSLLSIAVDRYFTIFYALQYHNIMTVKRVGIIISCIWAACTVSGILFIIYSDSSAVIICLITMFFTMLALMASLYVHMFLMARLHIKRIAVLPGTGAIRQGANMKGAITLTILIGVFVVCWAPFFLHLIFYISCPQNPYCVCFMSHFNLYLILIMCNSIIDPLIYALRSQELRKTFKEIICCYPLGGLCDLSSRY
assay details: competition with labelled NDP-α-MSH ([I125] or Eu), hMC4-R HEK-293 membranes
Protocol: After incubation for 60 minutes at 37° C., the assay mixture was filtered and the membranes washed three times with ice-cold buffer. Filters were dried and counted in a gamma counter for bound radioactivity. […] Maximal specific binding (100%) was defined as the difference in radioactivity (cpm) bound to cell membranes in the absence and presence of 1 μM NDP-α-MSH. […] Ki values for test peptides of the present invention were determined using Graph-Pad Prism® curve-fitting software. […]
Bridge positions count the residues as written; N and C are the ends. Square brackets hold non-standard residues; d marks the D form. Hyp = O=C(O)[C@@H]1C[C@@H](O)CN1
recorded metric: Ki (µM)
I only need the number, in µM, no unit after it.

binder: Ac-RD[Hyp][dF]RWK-NH2 (lactam 2-7, also called Peptide Structure (Asp...Lys) in the row of No. 14) [Asp...Lys analog of peptide No. 14: Ac-Arg-cyclo(Asp-Hyp-D-Phe-Arg-Trp-Lys)-NH2]
Ki, µM: 0.004

Let's switch to this binder now.
# input So what does the record say about Ki for Ac-DQ[dF]RWK-NH2 (lactam 1-6; SMILES CC(=O)N[C@H]1CC(=O)NCCCC[C@@H](C(N)=O)NC(=O)[C@H](Cc2c[nH]c3ccccc23)NC(=O)[C@H](CCCNC(=N)N)NC(=O)[C@@H](Cc2ccccc2)NC(=O)[C@H](CCC(N)=O)NC1=O, also called Peptide Structure (Asp...Lys) in the row of No. 21) [Asp...Lys analog of peptide No. 21: Ac-cyclo(Asp-Gln-D-Phe-Arg-Trp-Lys)-NH2] ?
# output 0.099

Reference source for all entries: patent US20120077957A1
